Quick list: Kd per entry.
Target: T1, cynomolgus monkey CD73 antigen (cynomolgus monkey, UniProt A0A2K5V5U7 27-547)
T1 construct: also called Biotinylated cynomolgus monkey CD73
T1 sequence: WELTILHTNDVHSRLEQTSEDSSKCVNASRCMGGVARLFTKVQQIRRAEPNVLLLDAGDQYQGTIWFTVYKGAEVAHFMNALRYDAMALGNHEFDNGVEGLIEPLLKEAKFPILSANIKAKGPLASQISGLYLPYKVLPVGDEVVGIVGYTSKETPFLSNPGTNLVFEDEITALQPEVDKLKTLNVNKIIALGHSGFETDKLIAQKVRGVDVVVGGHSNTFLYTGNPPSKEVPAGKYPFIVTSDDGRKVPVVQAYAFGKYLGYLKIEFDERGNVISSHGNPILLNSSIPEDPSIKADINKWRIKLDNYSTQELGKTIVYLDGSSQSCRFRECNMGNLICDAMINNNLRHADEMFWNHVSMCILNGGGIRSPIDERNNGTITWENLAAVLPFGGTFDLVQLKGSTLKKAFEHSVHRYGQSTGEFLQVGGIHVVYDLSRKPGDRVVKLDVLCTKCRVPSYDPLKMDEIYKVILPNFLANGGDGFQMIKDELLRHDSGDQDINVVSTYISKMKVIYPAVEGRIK
Experiment: ForteBio BLI; antigen on sensor, 100 nM scFv; monovalent; 1:1 model

Binder	Kd / nM
scfv fragment of ADI-37497 (scFv, V domains shown) VH: EVQLVESGGGLVQPGGSLRLSCAASGFTFDDYFMHWVRQAPGKGLEWVSGISWSSGPIDYADSVKGRFTISRDNAKNSLYLQMNSLRAEDTAVYYCAKGKYLPTGSVDYWGQGTLVTVSS VL: EIVLTQSPGTLSLSPGERATLSCRASQSVSSSYLAWYQQKPGQAPRLLIYGASSRATGIPDRFSGSGSGTDFTLTISRLEPEDFAVYYCQQYYDYPPITFGGGTKVEIK	8.82
scfv fragment of ADI-37513 (scFv, V domains shown) VH: EVQLLESGGGVVQPGRSLRLSCAASGFTFNFYGMHWVRQAPGKGLEWVAVINDEGINKYYADSVKGRFTISRDNSKNTLYLQMNSLRAEDTAVYYCARGGARYPIAFDIWGQGTMVTVSS VL: DIQLTQSPSSVSASVGDRVTITCRASQDISSWLAWYQQKPGKAPKLLIYAASSLQSGVPSRFSGSGSGTDFTLTISSLQPEDFATYYCQQANDFPITFGGGTKVEIK	2.26
scfv fragment of ADI-37506 (scFv, V domains shown) VH: EVQLLESGGGLVQPGGSLRLSCAASGFTFSNLAMSWVRQAPGKGLEWVSAISGRATSTYYADSVKGRFTISRDNSKNTLYLQMNSLRAEDTAVYYCARGGPYGSGSYWDTFDYWGQGTLVTVSS VL: EIVMTQSPATLSVSPGERATLSCRASQSVSSNLAWYQQKPGQAPRLLIYGASTRATGIPARFSGSGSGTEFTLTISSLQSEDFAVYYCQQYTNHYTFGGGTKVEIK	4.77
